system: T1, recombinant human HER2 extracellular domain protein (human, UniProt P04626 23-652)
T1 construct: range 23-652; Range is printed for the immunogen/panning protein; also called ErbB2; recombinant HER2 protein
assay_overview: BLI, Protein A capture
Reported koff values for the following binders.
Report the figure in s⁻¹ without appending any unit label.

# count of solved cases: 2
2126-Hu-H34 (antibody, IgG1, V domains shown, IgG1/Cκ) VH: QVQLVQSGSELKKPGASVKVSCKASGYTFTDYSMHWVRQAPGQGLEWMGWINTETGEPTYADNFKGRFVFSLDTSVSTAYLQISSLKAEDTAVYFCVRVGRYDYAMDYWGQGTTVTVSS VL: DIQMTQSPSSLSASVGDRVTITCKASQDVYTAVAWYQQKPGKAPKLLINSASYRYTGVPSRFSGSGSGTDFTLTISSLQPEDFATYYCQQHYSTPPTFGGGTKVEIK : 0.000454
2126-Hu-L14 (antibody, IgG1, V domains shown, IgG1/Cκ) VH: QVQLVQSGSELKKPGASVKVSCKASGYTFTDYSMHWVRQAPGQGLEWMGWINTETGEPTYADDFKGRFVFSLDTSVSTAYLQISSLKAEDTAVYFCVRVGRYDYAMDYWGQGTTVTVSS VL: DIQMTQSPSSLSASVGDRVTITCKASQDVYTAVAWYQQKPGKAPKLLINSASYRATGVPSRFSGSGSGTDFTLTISSLQPEDFATYYCQQHYSTPPTFGGGTKVEIK : 0.000666

Note: attention shifts to another entry.
So, 2126-Hu-H61 (antibody, IgG1, V domains shown, IgG1/Cκ) VH: QVQLVQSGSELKKPGASVKVSCKASGYTFTDYSMHWVRQAPGQGLEWMGWINTETGEPTYADDFKGRFVFSLDTSVSTAYLQISSLKAEDTAVYFCVRVGRYDYAFDYWGQGTTVTVSS VL: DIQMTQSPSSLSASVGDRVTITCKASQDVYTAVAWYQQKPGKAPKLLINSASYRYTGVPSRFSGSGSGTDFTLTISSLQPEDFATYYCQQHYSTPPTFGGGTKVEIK ? Its koff was 0.00201
